Test system: CLOCK:BMAL1 dimer
TEST: E-box-LUC reporter assay of transcriptional activity of CLOCK:BMAL1 dimer in NIH-3T3 fibroblast line
Format: cell-based
CONDITION LABEL: NIH-3T3 E-box-LUC cells, 0.1-100 μM, 36 hours, four parameter logistic fit, DMSO control
OUTCOME MEASURE: Max (%) maximum activity of E-box-LUC reporter compared to the control group
Kindly answer with a numeric value in %, unit omitted.

Worked examples, 3 compounds total:
CC(=NOCc1ccc(Br)cc1)c1cccc(OCC(=O)O)c1; 123.78
COC(=O)COc1ccc(C(C)=NOCc2ccc(Br)cc2)cc1; 111.88
CC(=NOCc1ccc(Br)cc1)c1ccc(OCC(=O)NCCc2ncc[nH]2)cc1; 120.89

Qu. Max (%) maximum activity of E-box-LUC reporter compared to the control group lookup needed for COC(=O)COc1ccc(C(C)=NOCc2cccc(C(F)(F)F)c2)cc1 , thanks.
Ans. 107.89

Qu. Follow-up item: CC(=NOCc1ccc([N+](=O)[O-])cc1)c1ccc(OCC(=O)O)cc1
Ans. 108.43

Qu. // next record CC(=NOCc1ccc(S(C)(=O)=O)cc1)c1cccc(OCC(=O)O)c1
Ans. 98.71

Qu. Next record, please: COC(=O)COc1cccc(C(C)=NOCc2ccc(F)cc2)c1
Ans. 119.93

Qu. Entry COC(=O)COc1ccc(C(C)=NOCc2ccc(OC)cc2)cc1 please
Ans. 103.87

Qu. Could you do the same for CC(=NOCc1ccc(Br)cc1)c1ccc(OCC(=O)NCc2ccccn2)cc1 , please?
Ans. 135.47

* * *

Tested on: CLOCK:BMAL1 dimer
TEST: E-box-LUC reporter assay of transcriptional activity of CLOCK:BMAL1 dimer in NIH-3T3 fibroblast line
Format: cell-based
CONDITION LABEL: NIH-3T3 E-box-LUC cells, 0.1-100 μM, 36 hours
OUTCOME MEASURE: pEC50
Scale: pEC50 equals -log10([C]), with [C] in mol/L.

Qu. Reported pEC50 for COC(=O)COc1cccc(C(C)=NOCc2cccc(C(F)(F)F)c2)c1 : what is it?
Ans. 4.56

* * *

Attribute: Max (%) maximum activity of E-box-LUC reporter compared to the control group
Tested on: CLOCK:BMAL1 dimer
TEST: E-box-LUC reporter assay of transcriptional activity of CLOCK:BMAL1 dimer in NIH-3T3 fibroblast line
Assay type: cell-based
CONDITION LABEL: NIH-3T3 E-box-LUC cells, 0.1-100 μM, 36 hours, four parameter logistic fit, DMSO control
// note: answer is a bare numeric in %

CC(=NOCc1cccc(C(F)(F)F)c1)c1ccc(OCC(=O)O)cc1 [Compound 9-2]; 115.15
CC(=NOCc1ccc(Br)cc1)c1cccc(OCC(=O)NCc2ccccn2)c1 [Compound 8-7]; 129.69
COC(=O)COc1ccc(C(C)=NOCc2ccc(S(C)(=O)=O)cc2)cc1 [Compound 9-11]; 100.39

Qu. Please provide the recorded Max (%) maximum activity of E-box-LUC reporter compared to the control group for COc1ccc(CON=C(C)c2ccc(OCC(=O)O)cc2)cc1 [Compound 9-4] , tested on CLOCK:BMAL1 dimer.
Ans. 102.65

Qu. Query CC(=NOCc1ccc(S(C)(=O)=O)cc1)c1ccc(OCC(=O)O)cc1 [Compound 9-12] next
Ans. 111.38

Qu. Query COC(=O)COc1ccc(C(C)=NOCc2ccc([N+](=O)[O-])cc2)cc1 [Compound 9-9] next
Ans. 113.52

Qu. And CC(=NOCc1ccc(Br)cc1)c1ccc(OCC(=O)O)cc1 [Compound 9-6] ?
Ans. 106.70

Qu. CC(=NOCc1ccc(Br)cc1)c1cccc(OCC(=O)NCCc2ncc[nH]2)c1 [Compound 8-8] ?
Ans. 121.10
